Molecular target: glucocorticoid receptor (GAL4 DBD-GR) (Homo sapiens (Human), UniProt P04150)
Assay: GR cell-based assays (GRE agonist / GRE antagonist), CHO-Gal4/GR luciferase reporter
Conditions: read-out: IC50 or EC50
Source text: Potential selective glucocorticoid receptor modulators of this intervention can be tested for modulation of the activity of the glucocorticoid receptor using cell-based assays. These assays involve a Chinese hamster ovary (CHO) cell line which contains fragments of the glucocorticoid receptor as well as fusion proteins. […] After cell lysis the luminescence that is produced by luciferase after addition of the substrate is detected and EC50 or IC50 values can be calcuated. […]
READOUT_NAME: IC50

> print(dat)
                                   compound  readout.name  endpoint.result
1  Cc1cccc([C@@H]2[C@@H](NS(C)(=O)=O)[C@H](C)C(=O)N2c2ccc3c(cnn3-c3ccc(F)cc3)c2)c1 (racemic)          IC50   100 to 1000 nM
2  C[C@@H]1C(=O)N(c2ccc3c(cnn3-c3ccc(F)cc3)c2)[C@H](c2ccc(Cl)s2)[C@H]1NC(=O)c1cccnc1 (racemic)          IC50         < 100 nM
3  Cc1cccc([C@@H]2[C@@H](NC(=O)c3scnc3C)[C@@H](C)C(=O)N2c2ccc3c(cnn3-c3ccc(F)cc3)c2)c1 (racemic)          IC50   100 to 1000 nM
4  CC[C@@]1(C)C(=O)N(c2ccc3c(cnn3-c3ccc(F)cc3)c2)[C@H](c2ccccc2)[C@H]1NC(=O)C1CC1 (racemic)          IC50   100 to 1000 nM
5  C[C@@H]1C(=O)N(c2ccc3c(cnn3-c3ccc(F)cc3)c2)[C@H](c2ccc(Cl)s2)[C@H]1NS(C)(=O)=O          IC50   100 to 1000 nM
6  CC1(C)C(=O)N(c2ccc3c(cnn3-c3ccc(F)cc3)c2)[C@@H](c2ccccc2)[C@@H]1NS(C)(=O)=O [Example 34b]          IC50   100 to 1000 nM

* * *

target: human glucocorticoid receptor (Homo sapiens (Human)); assay: Human glucocorticoid receptor (hGR) ligand-binding assay (3H-dexamethasone competition, IM9 cytosol); conditions: read-out: % inhibition hGR at 1 μM
Sequence (P04150 whole entry): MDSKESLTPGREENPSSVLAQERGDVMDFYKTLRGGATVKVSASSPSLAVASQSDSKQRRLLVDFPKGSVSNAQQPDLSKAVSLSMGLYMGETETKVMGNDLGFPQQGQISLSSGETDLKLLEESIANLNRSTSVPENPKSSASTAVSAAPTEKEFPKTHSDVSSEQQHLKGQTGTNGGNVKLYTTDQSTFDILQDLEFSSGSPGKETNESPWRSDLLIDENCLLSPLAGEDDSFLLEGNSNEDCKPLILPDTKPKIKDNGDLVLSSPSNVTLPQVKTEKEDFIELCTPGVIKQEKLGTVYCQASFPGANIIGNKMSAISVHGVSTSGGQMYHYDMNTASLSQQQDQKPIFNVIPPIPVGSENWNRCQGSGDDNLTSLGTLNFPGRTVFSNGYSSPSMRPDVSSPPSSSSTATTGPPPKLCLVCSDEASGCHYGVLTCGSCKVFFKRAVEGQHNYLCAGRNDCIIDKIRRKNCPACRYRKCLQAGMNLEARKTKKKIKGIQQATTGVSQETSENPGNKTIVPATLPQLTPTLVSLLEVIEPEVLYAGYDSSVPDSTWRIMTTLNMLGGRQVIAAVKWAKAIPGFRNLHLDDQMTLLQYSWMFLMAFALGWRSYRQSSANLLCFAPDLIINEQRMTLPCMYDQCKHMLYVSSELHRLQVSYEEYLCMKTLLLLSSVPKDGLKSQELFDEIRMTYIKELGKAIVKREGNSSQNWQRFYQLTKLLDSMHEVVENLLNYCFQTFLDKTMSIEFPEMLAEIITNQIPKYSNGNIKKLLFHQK
# inhibition at 1 µM annotations
READOUT_NAME: inhibition at 1 µM (%)

> print(dat)
                                    compound                              study.target  endpoint.result
 1  Cn1cc(-n2ncc3cc(N4C(=O)C(C)(C)[C@H](NC(=O)c5cnco5)[C@H]4c4ccccc4)ccc32)ccc1=O [Example 13]  human glucocorticoid receptor (Homo sapiens (Human))               20
 2  O=C(N[C@@H]1[C@@H](c2ccccc2)N(c2ccc3c(cnn3-c3ccc(F)cc3)c2)C(=O)C12CC2)C1CC1 (racemic) [Example 3]  human glucocorticoid receptor (Homo sapiens (Human))               98
 3  Cn1cc(-n2ncc3cc(N4C(=O)C(C)(C)[C@@H](NC(=O)C(C)(F)F)[C@@H]4c4ccccc4)ccc32)ccc1=O [Example 8]  human glucocorticoid receptor (Homo sapiens (Human))               12
 4  Cn1cc(-n2ncc3cc(N4C(=O)C(C)(C)[C@@H](NC(=O)c5cncs5)[C@@H]4c4ccccc4)ccc32)ccc1=O [Example 24]  human glucocorticoid receptor (Homo sapiens (Human))               12
 5  Cn1cc(-n2ncc3cc(N4C(=O)C(C)(C)[C@H](NC(=O)C(C)(F)F)[C@H]4c4ccccc4)ccc32)ccc1=O [Example 9]  human glucocorticoid receptor (Homo sapiens (Human))               86
 6  CC1(C)C(=O)N(c2ccc3c(cnn3-c3ccc(F)cc3)c2)[C@H](c2ccccc2)[C@H]1NC(=O)C1CC1 [Example 1]  human glucocorticoid receptor (Homo sapiens (Human))               99
 7  CC(F)(F)C(=O)N[C@H]1[C@H](c2ccccc2)N(c2ccc3c(cnn3-c3ccc(F)cc3)c2)C(=O)C1(C)C [Example 4]  human glucocorticoid receptor (Homo sapiens (Human))               95
 8  Cn1cc(-n2ncc3cc(N4C(=O)C(C)(C)[C@H](NC(=O)c5cscn5)[C@H]4c4ccccc4)ccc32)ccc1=O [Example 17]  human glucocorticoid receptor (Homo sapiens (Human))               80
 9  Cn1ccc(C(=O)N[C@@H]2[C@@H](c3ccccc3)N(c3ccc4c(cnn4-c4ccc(=O)n(C)c4)c3)C(=O)C2(C)C)n1 [Example 12]  human glucocorticoid receptor (Homo sapiens (Human))               83
10  Cc1ncsc1C(=O)N[C@@H]1[C@@H](c2ccccc2)N(c2ccc3c(cnn3-c3ccc(=O)n(C)c3)c2)C(=O)C1(C)C [Example 16]  human glucocorticoid receptor (Homo sapiens (Human))               30
11  Cn1cc(-n2ncc3cc(N4C(=O)C(C)(C)[C@@H](NC(=O)c5cnco5)[C@@H]4c4ccccc4)ccc32)ccc1=O [Example 21]  human glucocorticoid receptor (Homo sapiens (Human))               22
12  CC1(C)C(=O)N(c2ccc3c(cnn3-c3ccc(F)cc3)c2)[C@@H](c2ccccc2)[C@@H]1NC(=O)C1CC1 [Example 2]  human glucocorticoid receptor (Homo sapiens (Human))               91

* * *

molecular target: glucocorticoid receptor (GAL4 DBD-GR) (Homo sapiens (Human), UniProt P04150); test: GR cell-based assays (GRE agonist / GRE antagonist), CHO-Gal4/GR luciferase reporter; settings: read-out: IC50 or EC50
# IC50 annotations
READOUT_NAME: IC50

> print(dat)
                                    molecule  readout.name  endpoint.result
 1  Cc1noc(C[C@@H]2C(=O)N(c3ccc4c(cnn4-c4ccc(F)cc4)c3)[C@H](c3ccccc3)[C@H]2NC(=O)C2CC2)n1          IC50   100 to 1000 nM
 2  O=C(N[C@@H]1[C@@H](c2ccccc2)N(c2ccc3c(cnn3-c3ccc(F)cc3)c2)C(=O)C12CC2)C1CC1 (racemic)          IC50         < 100 nM
 3  C[C@H]1C(=O)N(c2ccc3c(cnn3-c3ccc(F)cc3)c2)[C@H](c2ccccc2Cl)[C@H]1NC(=O)c1ncccn1 (racemic)          IC50         < 100 nM
 4  C[C@H]1C(=O)N(c2ccc3c(cnn3-c3ccc(F)cc3)c2)[C@H](c2ccccc2Cl)[C@H]1NC(=O)c1cccnc1 (racemic)          IC50         < 100 nM
 5  Cc1cccc([C@@H]2[C@@H](NC(=O)c3ncccn3)[C@@H](C)C(=O)N2c2ccc3c(cnn3-c3ccc(F)cc3)c2)c1 (racemic)          IC50   100 to 1000 nM
 6  C[C@@H]1C(=O)N(c2ccc3c(cnn3-c3ccc(F)cc3)c2)[C@H](c2ccc(Cl)s2)[C@H]1NC(=O)c1ncccn1 (racemic)          IC50         < 100 nM
 7  Cc1cnc(C(=O)N[C@@H]2[C@@H](c3ccccc3)N(c3ccc4c(cnn4-c4ccc(=O)n(C)c4)c3)C(=O)C2(C)C)s1          IC50   100 to 1000 nM
 8  C[C@@]1(c2ccc(Cl)s2)[C@@H](NC(=O)C2CC2)CC(=O)N1c1ccc2c(cnn2-c2ccc(F)cc2)c1          IC50   100 to 1000 nM
 9  C[C@H]1C(=O)N(c2ccc3c(cnn3-c3ccc(F)cc3)c2)[C@H](c2ccc(Cl)s2)[C@H]1NC(=O)C(C)(F)F (racemic)          IC50         < 100 nM
10  Cc1nocc1C(=O)N[C@H]1[C@H](c2ccccc2)N(c2ccc3c(cnn3-c3ccc(F)cc3)c2)C(=O)C1(C)C [Example 40b]          IC50   100 to 1000 nM
11  O=C(N[C@@H]1[C@@H](c2ccccc2)N(c2cnc3c(cnn3-c3ccc(F)cc3)c2)C(=O)C12CC2)C1CC1 (racemic)          IC50   100 to 1000 nM
12  C[C@]1(F)C(=O)N(c2ccc3c(cnn3-c3ccc(F)cc3)c2)[C@H](c2ccccc2)[C@H]1NC(=O)C1CC1 (racemic)          IC50   100 to 1000 nM
13  C[C@@H]1C(=O)N(c2ccc3c(cnn3-c3ccc(F)cc3)c2)[C@H](c2ccccc2)[C@H]1NC(=O)c1ccn(C)n1 (racemic)          IC50         < 100 nM

* * *

# IC50 annotations
target: glucocorticoid receptor (GAL4 DBD-GR) (Homo sapiens (Human)); experiment: GR cell-based assays (GRE agonist / GRE antagonist), CHO-Gal4/GR luciferase reporter; settings: CHO-Gal4/GR reporter cells, agonist mode (EC50) or antagonist mode against beclometasone (IC50), 6 hour incubation
READOUT_NAME: IC50

COMPOUND	STUDY_TARGET	ENDPOINT_RESULT
O=C(N[C@H]1C(CCc2ccccc2)C(=O)N(c2ccc3c(cnn3-c3ccc(F)cc3)c2)[C@@H]1c1ccccc1)C1CC1 (single isomer, unassigned) [Example 130]	glucocorticoid receptor (GAL4 DBD-GR) (Homo sapiens (Human))	0.1 to 1 µM
Cn1ccc(C(=O)N[C@@H]2[C@@H](c3ccccc3)N(c3ccc4c(cnn4-c4ccc(F)cc4)c3)C(=O)C2(C)C)n1 [Example 37]	glucocorticoid receptor (GAL4 DBD-GR) (Homo sapiens (Human))	< 0.1 µM
O=C(N[C@H]1[C@H](F)C(=O)N(c2ccc3c(cnn3-c3ccc(F)cc3)c2)[C@@H]1c1ccccc1)C1CC1 [Example 95]	glucocorticoid receptor (GAL4 DBD-GR) (Homo sapiens (Human))	< 0.1 µM
CC1(C)C(=O)N(c2ccc3c(cnn3-c3ccc(F)cc3)c2)[C@H](c2ccccc2)[C@H]1NC(=O)c1ncccn1 [Example 43a]	glucocorticoid receptor (GAL4 DBD-GR) (Homo sapiens (Human))	< 0.1 µM
C[C@@]1(CC(F)F)C(=O)N(c2ccc3c(cnn3-c3ccc(F)cc3)c2)[C@H](c2ccccc2)[C@H]1NC(=O)C1CC1 (racemic) [Example 136]	glucocorticoid receptor (GAL4 DBD-GR) (Homo sapiens (Human))	< 0.1 µM
CC1(C)C(=O)N(c2ccc3c(cnn3-c3ccc(F)cc3)c2)[C@H](c2ccccc2)[C@H]1NS(=O)(=O)C1CC1 [Example 35a]	glucocorticoid receptor (GAL4 DBD-GR) (Homo sapiens (Human))	< 0.1 µM
